target.or.test.system: human orexin-2 receptor (Homo sapiens (Human))
Sequence (O43614 whole entry): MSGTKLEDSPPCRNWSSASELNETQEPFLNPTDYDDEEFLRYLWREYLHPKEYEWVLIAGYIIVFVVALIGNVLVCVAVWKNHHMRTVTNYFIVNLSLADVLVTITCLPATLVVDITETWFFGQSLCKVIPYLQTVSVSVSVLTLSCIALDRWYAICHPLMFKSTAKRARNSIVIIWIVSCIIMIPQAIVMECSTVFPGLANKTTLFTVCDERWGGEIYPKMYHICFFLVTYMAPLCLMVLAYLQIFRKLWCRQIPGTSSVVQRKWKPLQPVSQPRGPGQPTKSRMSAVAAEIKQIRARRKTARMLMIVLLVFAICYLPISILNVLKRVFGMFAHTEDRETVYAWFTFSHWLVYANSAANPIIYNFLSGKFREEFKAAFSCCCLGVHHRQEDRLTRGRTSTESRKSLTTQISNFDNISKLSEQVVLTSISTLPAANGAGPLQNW
assay.comment: FLIPR Ca2+ Flux Assay, orexin-2 receptor
experimental.context: CHO cells, agonist 70 pM Ala-6,12 human orexin-A; read-out: hOX2R FLIPR IC50

| smiles.str | u | IC50 |
| --- | --- | --- |
| COc1ccc(C(=O)N2C[C@H](Sc3cc(C#N)ccn3)CC[C@H]2C)c(-n2nccn2)c1 | nM | 224 |
| CC(C)Oc1ccccc1C(=O)N1C[C@H](Sc2cc(C#N)ccn2)CC[C@H]1C | nM | 29.4 |
| C[C@@H]1CC[C@@H](Sc2cc(C#N)ccn2)CN1C(=O)c1ccsc1-c1ncccn1 | nM | 19 |
| Cc1ccnc(S[C@@H]2CC[C@@H](C)N(C(=O)c3ccccc3-n3nccn3)C2)c1 | nM | 20 |
| COC(=O)c1cccnc1S[C@@H]1CC[C@@H](C)N(C(=O)c2ccccc2-n2nccn2)C1 | nM | 23.9 |
| Cc1ccc(C(=O)N2C[C@H](Sc3cc(C#N)ccn3)CC[C@H]2C)c(-n2nccn2)c1 | nM | 49 |
| COC(=O)c1ccnc(S[C@@H]2CC[C@@H](C)N(C(=O)c3ccccc3-n3nccn3)C2)c1 | nM | 297 |
| C[C@@H]1CC[C@@H](Sc2cc(C#N)ccn2)CN1C(=O)c1c(F)cccc1-n1nccn1 | nM | 51.4 |

---

pIC50 values, listed per item
target.or.test.system: human orexin-2 receptor (Homo sapiens (Human))
assay.comment: FLIPR Ca2+ Flux Assay, orexin-2 receptor
Format: cell-based
experimental.context: CHO cells, agonist 70 pM Ala-6,12 human orexin-A; read-out: hOX2R FLIPR IC50
pIC50: −log10 of the molar value.

| smiles.str | pIC50 |
| --- | --- |
| C[C@@H]1CC[C@@H](Sc2cc(C#N)ccn2)CN1C(=O)c1cc(Br)ccc1-n1nccn1 | 7.83 |
| C[C@@H]1CC[C@@H](Sc2cc(C#N)ccn2)CN1C(=O)c1ccccc1-c1ccccc1 | 7.78 |
| C[C@@H]1CC[C@@H](Sc2cc(C#N)ccn2)CN1C(=O)c1ccccc1-c1cnn(C)c1 | 7.52 |
| COC(=O)c1c(OC)ccnc1S[C@@H]1CC[C@@H](C)N(C(=O)c2ccccc2-n2nccn2)C1 | 7.95 |

---

IC50 values, listed per item
target.or.test.system: hOX1R (Homo sapiens, UniProt O43613)
assay.comment: FLIPR Ca2+ Flux Assay, orexin-1 receptor
experimental.context: CHO cells, agonist 70 pM Ala-6,12 human orexin-A

| compound | target.or.test.system | IC50 / µM |
| --- | --- | --- |
| C[C@@H]1CC[C@@H](Sc2cc(C#N)ccn2)CN1C(=O)c1ccccc1-c1ncccn1 [Example 41] | hOX1R (Homo sapiens, UniProt O43613) | 1.58 |
| CC(C)Oc1ccccc1C(=O)N1C[C@H](Sc2cc(C#N)ccn2)CC[C@H]1C [Example 33] | hOX1R (Homo sapiens, UniProt O43613) | 6.84 |
| C[C@@H]1CC[C@@H](Sc2cc(C#N)ccn2)CN1C(=O)c1cccnc1-c1ccccc1 [Example 32] | hOX1R (Homo sapiens, UniProt O43613) | 10 |
| Cc1ccc(C(=O)N2C[C@H](Sc3cc(C#N)ccn3)CC[C@H]2C)c(-n2nccn2)c1 [Example 22] | hOX1R (Homo sapiens, UniProt O43613) | 1.5 |
| COc1ccc(C(=O)N2C[C@H](Sc3cc(C#N)ccn3)CC[C@H]2C)c(-n2nccn2)n1 [Example 14] | hOX1R (Homo sapiens, UniProt O43613) | 10 |
| C[C@@H]1CC[C@@H](Sc2cc(C#N)ccn2)CN1C(=O)c1ccccc1C1CC1 [Example 30] | hOX1R (Homo sapiens, UniProt O43613) | 4.07 |
| C[C@@H]1CC[C@@H](Sc2cc(C#N)ccn2)CN1C(=O)c1ccccc1N1CCCC1 [Example 39] | hOX1R (Homo sapiens, UniProt O43613) | 10 |
| COc1ccc(C(=O)N2C[C@H](Sc3cc(C#N)ccn3)CC[C@H]2C)c(-c2ncccn2)n1 [Example 43] | hOX1R (Homo sapiens, UniProt O43613) | 10 |
